- EXPERIMENTAL TARGET: 5'-nucleotidase (Rattus norvegicus)
- METHOD SUMMARY: Inhibition of recombinant rat ecto-5' nucleotidase expressed in COS7 cell membranes assessed as inorganic phosphate release using AMP as substrate at 100 uM preincubated for 10 mins followed by substrate addition and measured after 20 mins by malachite green dye based spectrophotometry relative to control

>  <MOLECULE>
Cc1[nH]nc2c1C1(C(=O)Nc3ccccc31)C(C#N)=C(N)N2 (centres undefined)

>  <inhibition (%)>
36.5

$$$$
>  <MOLECULE>
CN1C(=O)C2(C(C#N)=C(N)Nc3n[nH]cc32)c2ccccc21 (centres undefined)

>  <inhibition (%)>
41

$$$$
>  <MOLECULE>
Cc1[nH]nc2c1C1(C(=O)N(C)c3ccc([N+](=O)[O-])cc31)C(C#N)=C(N)N2 (centres undefined)

>  <inhibition (%)>
45.1

$$$$
>  <MOLECULE>
N#CC1=C(N)Nc2n[nH]cc2C12C(=O)Nc1ccccc12 (centres undefined)

>  <inhibition (%)>
41.7

$$$$
